Catalogue of log2 fold change of degron read counts readings, one per entry.
# Target Of Assay: T1, CRBN, Q96SW2;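 note: pooled lentiviral library of zinc finger degron-EGFP fusions in mCherry-positive Jurkat cells, FACS-sorted after compound exposure, with degron abundance counted by next-generation sequencing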
# T1 chain: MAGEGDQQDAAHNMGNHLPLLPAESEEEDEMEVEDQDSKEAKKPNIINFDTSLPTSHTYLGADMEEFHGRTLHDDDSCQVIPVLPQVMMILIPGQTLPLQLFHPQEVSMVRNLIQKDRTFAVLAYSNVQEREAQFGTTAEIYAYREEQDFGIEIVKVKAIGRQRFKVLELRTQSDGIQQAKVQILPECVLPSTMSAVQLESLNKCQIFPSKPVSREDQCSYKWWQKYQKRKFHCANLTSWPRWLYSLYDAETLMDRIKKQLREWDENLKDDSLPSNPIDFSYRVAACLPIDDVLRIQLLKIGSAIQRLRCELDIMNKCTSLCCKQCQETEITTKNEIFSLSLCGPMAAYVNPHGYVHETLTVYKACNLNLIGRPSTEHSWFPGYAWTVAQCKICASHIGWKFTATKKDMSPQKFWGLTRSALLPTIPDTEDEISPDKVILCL
# Assay Method Text: log2 fold change of degron read counts, EGFP-low vs EGFP+ sorted cells (limma voom), compound-induced degradation; higher = more compound-induced degradation of the degron-EGFP fusion; degrons are variants of IKZF1/3 zinc finger 2; compound dose not given here
# Assay Conditions: Jurkat; 18 h; compound: compound 19 (5-tert-butyl-thalidomide)
Whole data set: some 8,300 sequences, median “log2 fold change of degron read counts, EGFP-low vs EGFP+ sorted cells (limma voom), compound-induced degradation” near -1.1, cut for the highest 2% near 3.2. The list comes from a sample in which the highest values are over-represented; it also holds close analogues and randomly drawn sequences.
Could you respond with only the numeric value?

[[record]]
polymer_sequence = "FYCEICGAMFTQKGNLLRHIKL [46F_47Y_49E_50I_52G_53A_54M_55F_67L_, Q9UKT9]"
parameter = "log2 fold change of degron read counts"
meas_value = 3.62

[[record]]
polymer_sequence = "LQCEICGFVCTQKGNLLRHIKL [46L_47Q_49E_50I_52G_53F_54V_55C_67L_, Q9UKT9]"
parameter = "log2 fold change of degron read counts"
meas_value = -0.0768

[[record]]
polymer_sequence = "LWCEICGFVCTQKGNLLRHIKL [46L_47W_49E_50I_52G_53F_54V_55C_67L_, Q9UKT9]"
parameter = "log2 fold change of degron read counts"
meas_value = 2.88

[[record]]
polymer_sequence = "LQCPICGFMCTQKGNLLRHIKL [46L_47Q_49P_50I_52G_53F_54M_55C_67L_, Q9UKT9]"
parameter = "log2 fold change of degron read counts"
meas_value = 0.655


Lab note: next sequence to report on.
In: Give the measured log2 fold change of degron read counts of FACDVCGACFTQKGNLLRHIKL [46F_47A_49D_50V_52G_53A_54C_55F_67L_, Q9UKT9] .
Out: 1.83
